system: RAW-Dual; experiment: NF-kB SEAP reporter activity, fold change vs agonist alone; cytotoxicity flag (confluency mask): not cytotoxic; higher = enhanced NF-kB activity; settings: agonist: LPS (TLR4) 0.1 ug/mL
The full ranking holds about 2,900 compounds; the median of “NF-kB SEAP reporter activity, fold change vs agonist alone” is about 0.99, and the highest 2% start at about 2.6. The list comes from a sample in which the highest values are over-represented; it also holds close analogues and randomly drawn compounds.
fulfilled means recorded NF-kB SEAP reporter activity is 0.9 or above; not fulfilled means it is below 0.9.

Compound	Class
Cl.Cl.OC(CN1CCN(c2cccc(Cl)c2)CC1)C(c1ccccc1)c1ccccc1 (stereo unspecified) (library stock concentration (final ~1000-fold dilution): 10 mM)	not fulfilled
CCCC1CC(C(=O)NC(C(C)Cl)C2OC(SC)C(O)C(O)C2O)N(C)C1.Cl.O (stereo unspecified) (library stock concentration (final ~1000-fold dilution): 10 mM)	fulfilled
Nc1nc(F)nc2c1ncn2C1OC(COP(=O)(O)O)C(O)C1O (stereo unspecified) (library stock concentration (final ~1000-fold dilution): 10 mM)	fulfilled
Cc1cn(C2CC(O)C(CO)O2)c(=O)[nH]c1=O (stereo unspecified) (library stock concentration (final ~1000-fold dilution): 10 mM)	fulfilled

----------
system: RAW-Dual; assay: NF-kB SEAP reporter activity, fold change vs agonist alone; higher = enhanced NF-kB activity; settings: library stock concentration (final ~1000-fold dilution): 10 mM; cytotoxicity flag (confluency mask): not cytotoxic; agonist: Imiquimod (TLR7) […]
The full ranking holds about 2,900 compounds; the median of “NF-kB SEAP reporter activity, fold change vs agonist alone” is about 0.99, and the highest 2% start at about 2.6. The list comes from a sample in which the highest values are over-represented; it also holds close analogues and randomly drawn compounds.
NF-kB SEAP reporter activity below 1 gives Not fulfilled; NF-kB SEAP reporter activity at or above it gives Fulfilled.

>>> print(df.to_string())
                                   compound  target_or_system          class
0  CC12CCC3c4ccc(O)cc4CC(CCCCCCCCCS(=O)CCCC(F)(F)C(F)(F)F)C3C1CCC2O (stereo not given)          RAW-Dual  Not fulfilled
1    O=C(Nc1ccncc1)c1cc([N+](=O)[O-])ccc1Cl          RAW-Dual  Not fulfilled
2  Cc1nn(CC(F)(F)F)cc1Nc1ncc(Br)c(NCc2ccc(S(N)(=O)=O)cc2)n1          RAW-Dual      Fulfilled
3  Nc1ccc(F)cc1NC(=O)c1ccc(CNC(=O)/C=C/c2cccnc2)cc1          RAW-Dual      Fulfilled
4  O=C(/C=C/c1cccnc1)NCCCCC1CCN(C(=O)c2ccccc2)CC1          RAW-Dual      Fulfilled
5  CC12CCC3C(CCC4C(C)(C(=O)O)CCCC34C)(CC1=O)C2 (stereo not given)          RAW-Dual  Not fulfilled
6  Cl.NCCOc1ccc(Cl)cc1C(=O)Nc1ccc([N+](=O)[O-])cc1Cl          RAW-Dual      Fulfilled
7  CC(C)(C)C(=O)Oc1ccc(S(=O)(=O)Nc2ccccc2C(=O)NCC(=O)O)cc1          RAW-Dual  Not fulfilled
8  Cc1ccc(-c2c(-c3nn(C)c4ncnc(N5CCC(N6CCCCC6)C5)c34)cnn2C)cc1 (stereo not given)          RAW-Dual  Not fulfilled
